System: HBV DNA
test description: HBV DNA assay (real-time qPCR of extracellular HBV DNA, HepG2.2.15 cells)
Format: cell-based
study conditions: Hepatitis B virus, 144 h, extracellular HBV DNA in supernatant, six days after treatment, read-out: IC50 (Anti HBV DNA production activity)
pIC50: −log10 of the molar value.
property: pIC50

[[record]]
compound = "COc1ccc(C(=O)N2CCc3nc(-c4ccccn4)ncc3C2C)s1 (stereo not shown) [Example 58]"
property = "pIC50"
value_observed = 4.38


* * *

System: HBsAg
test description: HBsAg assay (CLIA of secreted HBsAg in HepG2.2.15 culture supernatant)
Type: cell-based, HBV
study conditions: Hepatitis B virus, HepG2.2.15, read-out: IC50 (HBsAg assay)
pIC50: −log10 of the molar value.
Consider the following molecules and their measured pIC50 readings.
property: pIC50

[[record]]
molecule = "Cc1ncoc1C(=O)N1CCc2nc(-c3ccccn3)ncc2C1C (centres unmarked) [Example 45]"
target_or_test_system = "HBsAg"
value_observed = 5.84

[[record]]
molecule = "Cc1cc(C(=O)N2CCc3nc(-c4ccccn4)ncc3C2)ccc1F [Example 20]"
target_or_test_system = "HBsAg"
value_observed = 5.11

[[record]]
molecule = "CC1c2cnc(-c3ccccn3)nc2CCN1C(=O)c1ccc(Cl)s1 (centres unmarked) [Example 42]"
target_or_test_system = "HBsAg"
value_observed = 6.59

[[record]]
molecule = "Cc1ccsc1C(=O)N1CCc2nc(-c3ccccn3)ncc2C1C (centres unmarked) [Example 50]"
target_or_test_system = "HBsAg"
value_observed = 4.56

[[record]]
molecule = "Cc1ccc(C(=O)N2CCc3nc(-c4ccccn4)ncc3C2)cn1 [Example 31]"
target_or_test_system = "HBsAg"
value_observed = 4.50

[[record]]
molecule = "CC1c2cnc(-c3ccccn3)nc2CCN1C(=O)c1ccsc1 (centres unmarked) [Example 44]"
target_or_test_system = "HBsAg"
value_observed = 5.61

[[record]]
molecule = "COc1cc(C(=O)N2CCc3nc(-c4ccccn4)ncc3C2)ccc1O [Example 25]"
target_or_test_system = "HBsAg"
value_observed = 4.46

[[record]]
molecule = "CC1c2cnc(-c3ccccn3)nc2CCN1C(=O)c1ccc2cc[nH]c2c1 (centres unmarked) [Example 46]"
target_or_test_system = "HBsAg"
value_observed = 5.68

[[record]]
molecule = "CC1c2cnc(-c3ncccn3)nc2CCN1C(=O)c1n[nH]c2ccc(F)cc12 (centres unmarked) [Example 64]"
target_or_test_system = "HBsAg"
value_observed = 6.68

[[record]]
molecule = "Cc1nc(C(=O)N2CCc3nc(-c4ccccn4)ncc3C2C)sc1C (centres unmarked) [Example 61]"
target_or_test_system = "HBsAg"
value_observed = 7.09

[[record]]
molecule = "COc1cc(F)cc(C(=O)N2CCc3nc(-c4ccccn4)ncc3C2)c1 [Example 38]"
target_or_test_system = "HBsAg"
value_observed = 4.66

[[record]]
molecule = "COc1c(F)cc(C(=O)N2CCc3nc(-c4ccccn4)ncc3C2)cc1F [Example 30]"
target_or_test_system = "HBsAg"
value_observed = 4.60

[[record]]
molecule = "COCCCOc1ccc(C(=O)N2CCc3nc(-c4ccccn4)ncc3C2)cc1OC [Example 26]"
target_or_test_system = "HBsAg"
value_observed = 5.50

[[record]]
molecule = "CC1c2cnc(-c3ccccn3)nc2CCN1C(=O)c1ncc[nH]1 (centres unmarked) [Example 56]"
target_or_test_system = "HBsAg"
value_observed = 5.97

[[record]]
molecule = "CC1c2cnc(-c3ccccn3)nc2CCN1C(=O)c1cccs1 (centres unmarked) [Example 49]"
target_or_test_system = "HBsAg"
value_observed = 5.95

[[record]]
molecule = "CCOc1cc(OCC)cc(C(=O)N2CCc3nc(-c4ccccn4)ncc3C2)c1 [Example 17]"
target_or_test_system = "HBsAg"
value_observed = 5.12

[[record]]
molecule = "COc1ccc(C(=O)N2CCc3nc(-c4ccccn4)ncc3C2C)cc1OC (single isomer, unassigned; (-)) [Example 34]"
target_or_test_system = "HBsAg"
value_observed = 5.74

[[record]]
molecule = "N#Cc1ccc(C(=O)N2CCc3nc(-c4ccccn4)ncc3C2)cc1 [Example 2]"
target_or_test_system = "HBsAg"
value_observed = 4.77

[[record]]
molecule = "CC1c2cnc(-c3ccccn3)nc2CCN1C(=O)c1ccc(Br)s1 (centres unmarked) [Example 53]"
target_or_test_system = "HBsAg"
value_observed = 6.29

[[record]]
molecule = "COc1cc(C(=O)N2CCc3nc(-c4ccccn4)ncc3C2)ccc1F [Example 9]"
target_or_test_system = "HBsAg"
value_observed = 4.94

[[record]]
molecule = "CC1c2cnc(-c3ncccn3)nc2CCN1C(=O)c1nn(C)c2ccccc12 (centres unmarked) [Example 62]"
target_or_test_system = "HBsAg"
value_observed = 6.38

[[record]]
molecule = "Cc1cnc(C(=O)N2CCc3nc(-c4ccccn4)ncc3C2C)s1 (centres unmarked) [Example 55]"
target_or_test_system = "HBsAg"
value_observed = 6.65

[[record]]
molecule = "CC1c2cnc(-c3ccccn3)nc2CCN1C(=O)c1nccn1C (centres unmarked) [Example 57]"
target_or_test_system = "HBsAg"
value_observed = 5.49

